# Tested on: blackgrass
# MEASUREMENT_DESCRIPTION: Test B pre/postemergence blackgrass
# Format: in vivo, Alopecurus myosuroides
# CONDITIONS: Postemergence, Rate 250 g/ha; scale 0 to 10
Kindly state Blackgrass plant response rating for each of the entries shown.
Answers are plain numbers.

COMPOUND	Blackgrass plant response rating
CCOP(=O)(OCC)C(C)n1c(=O)on(C(=O)N(c2ccccc2)C(C)C)c1=O (centres unmarked)	0

Record Blackgrass plant response rating for all entries; do not skip any.
1. CC(C)N(C(=O)n1oc(=O)n(CC2=CCCCC2)c1=O)c1ccccc1
2. CC[Si](C)(C)Cn1c(=O)on(C(=O)N(c2ccc(F)cc2)C(C)C)c1=O
3. CC(C)C(=O)Cn1c(=O)on(C(=O)N(c2ccc(F)cc2F)C(C)C)c1=O
4. C=CC(OC)n1c(=O)on(C(=O)N(c2ccc(F)cc2)C(C)C)c1=O (centres unmarked)

1. 3
2. 8
3. 8
4. 3

Cited source for all entries: patent US6737383B1
